Target: UniProtKB Q12809
Sequence (Q12809 whole entry): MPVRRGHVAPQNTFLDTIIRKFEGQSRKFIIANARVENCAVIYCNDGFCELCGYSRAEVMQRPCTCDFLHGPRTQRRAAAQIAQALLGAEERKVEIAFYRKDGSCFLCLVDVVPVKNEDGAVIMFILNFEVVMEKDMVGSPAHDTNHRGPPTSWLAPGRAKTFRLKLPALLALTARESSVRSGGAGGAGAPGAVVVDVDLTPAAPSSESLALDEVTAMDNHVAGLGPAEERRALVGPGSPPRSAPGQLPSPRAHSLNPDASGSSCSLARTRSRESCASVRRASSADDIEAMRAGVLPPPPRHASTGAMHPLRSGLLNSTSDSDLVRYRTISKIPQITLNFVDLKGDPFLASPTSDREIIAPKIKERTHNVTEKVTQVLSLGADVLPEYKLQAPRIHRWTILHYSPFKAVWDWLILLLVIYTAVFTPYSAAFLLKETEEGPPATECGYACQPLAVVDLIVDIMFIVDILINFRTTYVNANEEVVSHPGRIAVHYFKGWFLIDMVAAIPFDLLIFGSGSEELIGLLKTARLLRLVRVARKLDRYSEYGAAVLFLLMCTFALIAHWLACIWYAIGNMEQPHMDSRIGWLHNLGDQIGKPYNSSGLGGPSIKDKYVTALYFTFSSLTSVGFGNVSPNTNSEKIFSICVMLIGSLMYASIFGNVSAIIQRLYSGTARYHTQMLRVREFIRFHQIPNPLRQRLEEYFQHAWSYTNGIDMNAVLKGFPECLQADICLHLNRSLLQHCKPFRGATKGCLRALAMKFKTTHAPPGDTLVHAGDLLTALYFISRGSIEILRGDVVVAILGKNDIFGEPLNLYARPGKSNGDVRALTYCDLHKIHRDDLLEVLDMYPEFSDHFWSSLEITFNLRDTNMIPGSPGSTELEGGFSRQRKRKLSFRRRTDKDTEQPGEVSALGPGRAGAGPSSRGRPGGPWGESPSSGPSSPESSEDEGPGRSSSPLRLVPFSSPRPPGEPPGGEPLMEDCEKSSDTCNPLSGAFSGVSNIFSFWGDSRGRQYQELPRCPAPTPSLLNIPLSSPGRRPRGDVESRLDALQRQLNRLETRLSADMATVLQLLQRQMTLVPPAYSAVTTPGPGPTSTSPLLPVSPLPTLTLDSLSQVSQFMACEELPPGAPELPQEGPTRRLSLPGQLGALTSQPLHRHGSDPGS
Test: hERG inhibition test, manual patch clamp, HEK293 cells over-expressing hERG
Details: tested at 1 μM and 10 μM
pIC50: −log10 of the molar value.

| molecule | pIC50 |
| --- | --- |
| CCCCOCCOc1ccc(-c2ccc3c(c2)/C=C(/C(=O)Nc2ccc([S+]([O-])Cc4c(C)ncn4CCC)cc2)CCCN3CC(C)(C)C(=O)O)cc1 (stereo not drawn) [Compound 2] | < 5.00 |
| CCCCOCCOc1ccc(-c2ccc3c(c2)/C=C(/C(=O)Nc2ccc([S@@+]([O-])Cc4c(C)ncn4CCC)cc2)CCCN3CC(C)(C)C(=O)O)cc1 [Compound 3] | < 5.00 |
| CCCCOCCOc1ccc(-c2ccc3c(c2)/C=C(/C(=O)Nc2ccc([S@+]([O-])Cc4c(C)ncn4CCC)cc2)CCCN3CC(C)(C)C(=O)O)cc1 [Compound 4] | < 5.00 |

====

Assay: Rat pharmacokinetic (PK) studies, plasma and liver
Assay type: in vivo
Conditions: male, SD, rat, liver relative to plasma, po, 5 mg/kg, male SD rats, p.o. 5 mg/kg, AUClast liver vs plasma; read-out: exposure in the liver relative to that in the plasma
measurement.name: Kp

| compound | result |
| --- | --- |
| CCCCOCCOc1ccc(-c2ccc3c(c2)/C=C(/C(=O)Nc2ccc([S@@+]([O-])Cc4c(C)ncn4CCC)cc2)CCCN3CC(C)(C)C(=O)O)cc1 [Compound 3] | ~2340 |

====

Reported half-life values are given for each entry in this list.
Test: Rat pharmacokinetic (PK) studies, plasma and liver
Format: in vivo
Conditions: rat, po; male SD rats, p.o. 5 mg/kg, liver

| molecule | output.unit | half-life |
| --- | --- | --- |
| CCCCOCCOc1ccc(-c2ccc3c(c2)/C=C(/C(=O)Nc2ccc([S@@+]([O-])Cc4c(C)ncn4CCC)cc2)CCCN3CC(C)(C)C(=O)O)cc1 [Compound 3] | h | 7.2 |
| CCCCOCCOc1ccc(-c2ccc3c(c2)/C=C(/C(=O)Nc2ccc([S@@+]([O-])Cc4cncn4CCC)cc2)CCCN3CC(C)C)cc1 [Cenicriviroc, reference compound] | h | 3.93 |

====

Reported IC50 values are given for each entry in this list.
Target: CCR2 (Homo sapiens, UniProt P41597)
Construct: host or cells: HEK293
Sequence (P41597 whole entry): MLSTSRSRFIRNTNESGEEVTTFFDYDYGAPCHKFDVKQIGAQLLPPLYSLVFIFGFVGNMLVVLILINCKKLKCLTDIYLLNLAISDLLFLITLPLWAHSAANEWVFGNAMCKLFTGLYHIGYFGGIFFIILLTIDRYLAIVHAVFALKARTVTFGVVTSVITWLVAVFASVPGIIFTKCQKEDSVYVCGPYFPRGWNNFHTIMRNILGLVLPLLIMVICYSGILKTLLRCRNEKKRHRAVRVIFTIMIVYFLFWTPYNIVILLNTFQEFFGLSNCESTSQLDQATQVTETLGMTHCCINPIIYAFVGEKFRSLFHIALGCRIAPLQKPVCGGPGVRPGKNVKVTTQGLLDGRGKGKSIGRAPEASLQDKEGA
Experiment: Inhibition test on activity of CCR2 in cells (calcium fluorescence, MCP1 stimulation)
Format: cell-based
Settings: HEK293 cells stably expressing CCR2, ligand MCP1
measurement.name: IC50

| compound | system.under.test | measurement.name | result |
| --- | --- | --- | --- |
| CCCCOCCOc1ccc(-c2ccc3c(c2)/C=C(/C(=O)Nc2ccc([S@@+]([O-])Cc4cncn4CCC)cc2)CCCN3CC(C)(C)C(=O)O)cc1 [Compound 1] | CCR2 (Homo sapiens, UniProt P41597) | IC50 | 0.74 nM |
| CCCCOCCOc1ccc(-c2ccc3c(c2)/C=C(/C(=O)Nc2ccc([S@+]([O-])Cc4c(C)ncn4CCC)cc2)CCCN3CC(C)(C)C(=O)O)cc1 [Compound 4] | CCR2 (Homo sapiens, UniProt P41597) | IC50 | 6.12 nM |
| CCCCOCCOc1ccc(-c2ccc3c(c2)/C=C(/C(=O)Nc2ccc([S@@+]([O-])Cc4c(C)ncn4CCC)cc2)CCCN3CC(C)(C)C(=O)O)cc1 [Compound 3] | CCR2 (Homo sapiens, UniProt P41597) | IC50 | 0.81 nM |
| CCCCOCCOc1ccc(-c2ccc3c(c2)/C=C(/C(=O)Nc2ccc([S+]([O-])Cc4c(C)ncn4CCC)cc2)CCCN3CC(C)(C)C(=O)O)cc1 (stereo not shown) [Compound 2] | CCR2 (Homo sapiens, UniProt P41597) | IC50 | 6.38 nM |

====

Target: CCR5 (Homo sapiens, UniProt P51681)
Construct: host or cells: HEK293
Sequence (P51681 whole entry): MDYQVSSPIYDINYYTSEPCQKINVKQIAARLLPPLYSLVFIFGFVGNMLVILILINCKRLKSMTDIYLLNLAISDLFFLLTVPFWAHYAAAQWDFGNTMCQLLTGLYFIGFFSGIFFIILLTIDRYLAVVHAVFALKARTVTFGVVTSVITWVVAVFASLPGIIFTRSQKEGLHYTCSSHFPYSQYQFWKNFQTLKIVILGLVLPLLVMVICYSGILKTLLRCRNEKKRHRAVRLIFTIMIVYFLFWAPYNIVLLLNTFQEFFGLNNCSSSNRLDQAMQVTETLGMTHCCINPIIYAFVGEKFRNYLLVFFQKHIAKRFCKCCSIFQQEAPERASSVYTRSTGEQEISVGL
Test: Inhibition test on activity of CCR5 in cells (calcium fluorescence, RANTES stimulation)
Assay type: cell-based
Details: HEK293 cells stably expressing CCR5, ligand RANTES
measurement.name: IC50 (nM)

| compound | quantitative.readout |
| --- | --- |
| CCCCOCCOc1ccc(-c2ccc3c(c2)/C=C(/C(=O)Nc2ccc([S@@+]([O-])Cc4cncn4CCC)cc2)CCCN3CC(C)(C)C(=O)O)cc1 [Compound 1] | 0.33 |
| CCCCOCCOc1ccc(-c2ccc3c(c2)/C=C(/C(=O)Nc2ccc([S@@+]([O-])Cc4c(C)ncn4CCC)cc2)CCCN3CC(C)(C)C(=O)O)cc1 [Compound 3] | 1.48 |
| CCCCOCCOc1ccc(-c2ccc3c(c2)/C=C(/C(=O)Nc2ccc([S@+]([O-])Cc4c(C)ncn4CCC)cc2)CCCN3CC(C)(C)C(=O)O)cc1 [Compound 4] | 2.82 |
| CCCCOCCOc1ccc(-c2ccc3c(c2)/C=C(/C(=O)Nc2ccc([S+]([O-])Cc4c(C)ncn4CCC)cc2)CCCN3CC(C)(C)C(=O)O)cc1 (stereo not shown) [Compound 2] | 3.18 |

====

Assay: Rat pharmacokinetic (PK) studies, plasma and liver
Format: in vivo
Settings: rat, po; male SD rats, p.o. 5 mg/kg, blood plasma

| molecule | AUC(0-t) |
| --- | --- |
| CCCCOCCOc1ccc(-c2ccc3c(c2)/C=C(/C(=O)Nc2ccc([S@@+]([O-])Cc4cncn4CCC)cc2)CCCN3CC(C)C)cc1 [Cenicriviroc, reference compound] | 6330 ng·h/mL |
| CCCCOCCOc1ccc(-c2ccc3c(c2)/C=C(/C(=O)Nc2ccc([S@@+]([O-])Cc4c(C)ncn4CCC)cc2)CCCN3CC(C)(C)C(=O)O)cc1 | 165 ng·h/mL |

====

Assay: Rat pharmacokinetic (PK) studies, plasma and liver
Assay type: in vivo
Settings: male, SD, rat, liver relative to plasma, po, 5 mg/kg, male SD rats, p.o. 5 mg/kg, Cmax liver vs plasma; read-out: drug concentration in the liver relative to that in the plasma

| smiles.string | Kp |
| --- | --- |
| CCCCOCCOc1ccc(-c2ccc3c(c2)/C=C(/C(=O)Nc2ccc([S@@+]([O-])Cc4c(C)ncn4CCC)cc2)CCCN3CC(C)(C)C(=O)O)cc1 | ~530 |

====

Biological target: CYP 3A4M (Homo sapiens)
Construct: from tissue; host or cells: human liver microsomes
Sequence (P08684 whole entry): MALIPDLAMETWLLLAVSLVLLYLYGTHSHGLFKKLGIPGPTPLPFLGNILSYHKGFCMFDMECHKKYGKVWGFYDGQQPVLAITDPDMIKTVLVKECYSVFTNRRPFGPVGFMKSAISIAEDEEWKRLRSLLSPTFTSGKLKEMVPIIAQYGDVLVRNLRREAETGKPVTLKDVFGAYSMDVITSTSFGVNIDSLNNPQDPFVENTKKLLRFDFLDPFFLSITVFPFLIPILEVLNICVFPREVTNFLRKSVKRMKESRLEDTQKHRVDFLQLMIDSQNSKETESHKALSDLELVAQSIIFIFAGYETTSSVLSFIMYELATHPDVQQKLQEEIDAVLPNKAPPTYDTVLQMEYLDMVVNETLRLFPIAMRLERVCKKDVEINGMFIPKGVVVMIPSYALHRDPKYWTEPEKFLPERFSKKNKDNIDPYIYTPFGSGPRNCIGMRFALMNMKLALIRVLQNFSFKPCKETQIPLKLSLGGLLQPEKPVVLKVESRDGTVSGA
Test: CYP 3A4M inhibition test in human liver microsomes (probe midazolam)
Format: in vitro ADME
Settings: probe substrate midazolam, read-out: CYP 3A4M (μM), half inhibition concentration (IC50)
Reported IC50 values are given for each entry in this list.

| compound | IC50, µM |
| --- | --- |
| CCCCOCCOc1ccc(-c2ccc3c(c2)/C=C(/C(=O)Nc2ccc([S+]([O-])Cc4c(C)ncn4CCC)cc2)CCCN3CC(C)(C)C(=O)O)cc1 (stereo not shown) [Compound 2] | 27.8 |
| CCCCOCCOc1ccc(-c2ccc3c(c2)/C=C(/C(=O)Nc2ccc([S@@+]([O-])Cc4c(C)ncn4CCC)cc2)CCCN3CC(C)(C)C(=O)O)cc1 [Compound 3] | 13.3 |
| CCCCOCCOc1ccc(-c2ccc3c(c2)/C=C(/C(=O)Nc2ccc([S@+]([O-])Cc4c(C)ncn4CCC)cc2)CCCN3CC(C)(C)C(=O)O)cc1 [Compound 4] | 15.3 |
| CCCCOCCOc1ccc(-c2ccc3c(c2)/C=C(/C(=O)Nc2ccc([S@@+]([O-])Cc4cncn4CCC)cc2)CCCN3CC(C)C)cc1 [Cenicriviroc, reference compound] | 3.43 |
